measuredTarget: PHF8 (KDM7) (Homo sapiens)
Construct: KDM7 (PHF8); BRIC; 1-1322; Bac
assayName: Histone lysine demethylase AlphaLISA assay, PHF8
Type: biochemical
conditionsUsed: AlphaLISA, in vitro; read-out: HDME Inhibition PHF8
Let's look at some molecules and their measured IC50.
Write it as a number; the unit nM goes unstated.

Example cases with answers are listed next.
{"molecule": "Cc1cc(OCc2ccccc2)c(CCNCc2cc(C(=O)O)cc(CO)n2)nn1", "unitsLabel": "nM", "experimentalValue": 2300}
{"molecule": "COC(=O)c1cn(Cc2ccc(F)cc2)c(CNCc2cc(C(=O)O)cc(CO)n2)n1", "unitsLabel": "nM", "experimentalValue": 2770}

**Q:** Field request: IC50 | item: Cc1cc(C(=O)O)cc(CNCc2nnc(CCN(C)C)n2Cc2ccc(F)cc2)n1
**A:** 2280

**Q:** Repeat for the following molecule: Cc1cc(C(=O)O)cc(CNCc2nccn2CCc2cncnc2)n1
**A:** 1030

**Q:** How about CCc1cc(C(=O)O)cc(CNCc2nccn2Cc2ccc(F)cc2)n1 ?
**A:** 5780

**Q:** Next up: CCc1cnc(CNCc2cc(C(=O)O)cc(C)n2)n1CCc1ccccc1
**A:** 1190

**Q:** What do you have for Cc1cc(C(=O)O)cc(CNCc2nccn2Cc2cccc(C#N)c2)n1 ?
**A:** 391

**Q:** Queued: Cc1cc(OCc2ccccc2)c(CCNCc2cc(C(=O)O)cc(C)n2)nn1
**A:** 3320

**Q:** Subsequent entry: O=C(O)c1cc(CO)nc(CNCc2nncn2CCc2cc(Cl)cc(Cl)c2)c1
**A:** 1300

**Q:** // repeat for Cc1nnc(CNCc2cc(C(=O)O)cc(CO)n2)n1Cc1ccc(F)cc1 and report
**A:** 529

---

measuredTarget: PHF8 (KDM7) (Homo sapiens, UniProt Q9UPP1)
Construct: KDM7 (PHF8); BRIC; 1-1322; Bac
Sequence (Q9UPP1 37-440 limits assumed): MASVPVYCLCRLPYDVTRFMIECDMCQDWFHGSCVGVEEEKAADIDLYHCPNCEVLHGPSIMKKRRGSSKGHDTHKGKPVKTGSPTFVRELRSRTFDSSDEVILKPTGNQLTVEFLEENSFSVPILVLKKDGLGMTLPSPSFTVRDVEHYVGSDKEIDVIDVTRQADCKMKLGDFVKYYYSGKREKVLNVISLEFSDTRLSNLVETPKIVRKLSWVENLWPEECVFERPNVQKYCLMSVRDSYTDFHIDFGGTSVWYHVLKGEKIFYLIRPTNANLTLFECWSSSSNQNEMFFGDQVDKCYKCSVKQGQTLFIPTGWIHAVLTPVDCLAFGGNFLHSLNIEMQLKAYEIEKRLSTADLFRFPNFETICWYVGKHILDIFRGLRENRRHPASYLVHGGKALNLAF
assayName: Histone lysine demethylase AlphaLISA assay, PHF8
Type: biochemical
conditionsUsed: AlphaLISA assay; read-out: HDME Inhibition PHF8 (IC50)
Procedure: The compounds of the application, or a pharmaceutically acceptable salt, or solvate, or prodrug thereof, are tested in an in vitro AlphaLISA assay. […] After an additional period of incubation, the plates are read. The ability of compounds of the application to inhibit the histone lysine demethylase activity in vitro of different enzymes was determined. […]
pIC50: −log10 of the molar value.
Each entry below carries its reported pIC50.

**Q:** Find the recorded pIC50 belonging to CCCCCCCc1cccnc1CCNCc1cc(C(=O)O)cc(C)n1 [Compound 21] and report it.
**A:** < 5.00

**Q:** Try this compound too: Cc1cc(C(=O)O)cc(CNCCc2ccccn2)n1 [Compound 3]
**A:** < 5.00

**Q:** // query: CCN(CCN(C)C)C(=O)CNCc1cc(C(=O)O)cc(CO)n1 [Compound 102]
**A:** < 5.00

**Q:** Could you do the same for CCCC(C)c1cnc(CNCc2cc(C(=O)O)cc(C)n2)n1Cc1ccc(F)cc1 (stereo not shown) [Compound 10] , please?
**A:** < 5.00

**Q:** # repeat for CCC(C)c1cnc(CNCc2cc(C(=O)O)cc(C)n2)n1Cc1ccc(F)cc1 (stereo not shown) [Compound 9]
**A:** < 5.00

**Q:** C=Cc1cc(C(=O)O)cc(CNCc2nccn2Cc2ccc(F)cc2)n1 [Compound 12] , same question.
**A:** < 5.00

**Q:** Quick one: COCc1cc(C(=O)O)cc(CNCc2nccn2Cc2ccc(F)cc2)n1 [Compound 2]
**A:** < 5.00

**Q:** Now try CCN(CCN(C)C)C(=O)CNCc1cc(C(=O)O)cc(C)n1 [Compound 98] .
**A:** < 5.00

**Q:** Same read-out for Cc1cc(C(=O)O)cc(CNCCc2ncccc2C2=CCCC2)n1 [Compound 59] ?
**A:** < 5.00

**Q:** Also Cc1cc(C(=O)O)cc(CNCc2nnc3n2C(c2ccccc2)CNC3)n1 (stereo not shown) [Compound 113] , if possible.
**A:** < 5.00

**Q:** Would you kindly repeat that for Cc1cc(C(=O)O)cc(CNCc2nnc(C3CC3)n2Cc2ccc(F)cc2)n1 [Compound 38] ?
**A:** < 5.00

**Q:** Also, COc1ccc(OCCc2ccccc2)c(CCNCc2cc(C(=O)O)cc(CO)n2)n1 [Compound 107] please.
**A:** < 5.00

**Q:** Query Cc1cc(C(=O)O)cc(CNCc2nnc(C)n2-c2cccc(Cl)c2)n1 [Compound 58] next
**A:** < 5.00
